// provenance: patent US20250206837A1

- system: T1, Recombinant His-tagged human CD36.ECD protein (Sino Biological) (human, UniProt P16671 30-439)
- T1 construct: Bought protein; also called hCD36.ECD; hCD36; not shown: His tag
- T1 sequence (P16671 30-439 limits assumed): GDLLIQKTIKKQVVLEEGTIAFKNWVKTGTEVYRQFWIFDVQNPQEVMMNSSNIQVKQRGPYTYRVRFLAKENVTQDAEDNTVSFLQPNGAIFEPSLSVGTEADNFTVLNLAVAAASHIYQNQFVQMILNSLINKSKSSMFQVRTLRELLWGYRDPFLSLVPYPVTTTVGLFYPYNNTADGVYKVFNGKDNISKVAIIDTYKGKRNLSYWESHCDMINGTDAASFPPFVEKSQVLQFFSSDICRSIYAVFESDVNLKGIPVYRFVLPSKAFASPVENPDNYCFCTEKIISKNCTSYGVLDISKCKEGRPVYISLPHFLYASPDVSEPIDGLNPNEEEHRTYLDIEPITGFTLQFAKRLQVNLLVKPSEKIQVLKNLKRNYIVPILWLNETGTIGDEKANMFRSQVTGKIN
- assaySummary: ELISA, coated human CD36.ECD (FIG. 2C)
readoutLabel: pEC50
Scale explanation: pEC50 corresponds to minus log10 of a concentration expressed in moles per litre.

Use the examples below as a reference point.
- binder: "117_30DA (antibody, V domains shown, full-length IgG, human kappa) VH: EVQLVESGGGLVQPGGSLRLSCAASGFTIDAFGIHWVRQAPGKGLEWVAWIAPYGGYTYYADSVKGRFTISADTSKNTAYLQMNSLRAEDTAVYYCARSFFGYFDYWGQGTLVTVSS VL: DIQMTQSPSSLSASVGDRVTITCRASQDVSNWVAWYQQKPGKAPKLLISYATSLYSGVPSRFSGSGSGTDFTLTISSLQPEDFATYYCQQHSNAPLTFGQGTKVEIKR"
  pEC50: 9.86
- binder: "117_30AA (antibody, V domains shown, full-length IgG, human kappa) VH: EVQLVESGGGLVQPGGSLRLSCAASGFTIAAFGIHWVRQAPGKGLEWVAWIAPYGGYTYYADSVKGRFTISADTSKNTAYLQMNSLRAEDTAVYYCARSFFGYFDYWGQGTLVTVSS VL: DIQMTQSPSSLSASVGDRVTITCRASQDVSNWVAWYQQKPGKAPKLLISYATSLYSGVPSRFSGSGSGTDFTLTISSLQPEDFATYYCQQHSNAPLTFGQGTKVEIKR"
  pEC50: 9.84

So for 117_30AT (antibody, V domains shown, full-length IgG, human kappa) VH: EVQLVESGGGLVQPGGSLRLSCAASGFTIATFGIHWVRQAPGKGLEWVAWIAPYGGYTYYADSVKGRFTISADTSKNTAYLQMNSLRAEDTAVYYCARSFFGYFDYWGQGTLVTVSS VL: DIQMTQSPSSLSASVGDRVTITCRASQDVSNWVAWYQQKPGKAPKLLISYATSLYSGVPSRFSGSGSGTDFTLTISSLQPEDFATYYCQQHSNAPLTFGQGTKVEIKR , the logged pEC50 turned out to be 9.61

Looking up 117_30DT (antibody, V domains shown, full-length IgG, human kappa) VH: EVQLVESGGGLVQPGGSLRLSCAASGFTIDTFGIHWVRQAPGKGLEWVAWIAPYGGYTYYADSVKGRFTISADTSKNTAYLQMNSLRAEDTAVYYCARSFFGYFDYWGQGTLVTVSS VL: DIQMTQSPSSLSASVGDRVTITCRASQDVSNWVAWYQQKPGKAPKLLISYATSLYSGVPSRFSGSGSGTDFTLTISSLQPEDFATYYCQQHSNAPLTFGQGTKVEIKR , I found its pEC50 recorded as 9.99
